assay: Lyophilisation solubility assay (LYSA); assay type: physicochemical; settings: aqueous buffer, thermodynamic from solid; 0.05 M phosphate buffer, pH 6.5; HPLC-UV; <1.0 = the detection limit; read-out: Lysa
Readout Name: solubility thermodynamic

Use the examples below as a reference point.
Compound	solubility thermodynamic
CNc1cc(F)cc2c1[nH]c1ncc(-c3cnc(OC)nc3)c(C3(CN)CC3)c12 [Example 4.01]	> 575 µg/mL
CNc1cc(F)c(F)c2c1[nH]c1ncc(-c3cncc(C#N)c3)c(N3CCCC3CN)c12 (centres unmarked) [Example 1.38]	> 610 µg/mL
CCNc1cc(F)c(F)c2c1[nH]c1ncc(-c3cnc4ccnn4c3)c(N3CCC(N)C3)c12 (centres unmarked) [Example 1.09]	190 µg/mL
CNc1cc(F)c(F)c2c1[nH]c1ncc(-c3cnc(C)nc3)c(N3C[C@H]4C[C@@H]3C[C@H]4N)c12 [GP-6, reference compound]	< 1 µg/mL
CCNc1cc(F)cc2c1[nH]c1ncc(-c3cncc(C#N)c3)c(N3CCCC(CN)C3)c12 (centres unmarked) [Example 1.14]	10 µg/mL
CNc1cc(F)c(F)c2c1[nH]c1ncc(-c3cnc(OC)nc3)c(N3CCC4(C[C@H]4N)C3)c12 (stereo in doubt) [Example 1.34]	93 µg/mL
CCNc1cc(F)cc2c1[nH]c1ncc(-c3cncc(C#N)c3)c(N3CCCC3CN)c12 (centres unmarked) [Example 1.06]	> 625 µg/mL
CCNc1cc(F)c(F)c2c1[nH]c1ncc(-c3cnc(OC)nc3)c(N3CC[C@@H](N)C3)c12 [Example 1.18]	195 µg/mL
CNc1cc(F)c(F)c2c1[nH]c1ncc(-c3cnc(OC)nc3)c(N3CCC[C@@H](CN)C3)c12 [Example 1.25]	194 µg/mL
CCNc1cc(C(F)(F)F)cc2c1[nH]c1ncc(-c3cncc(C#N)c3)c(N3CCC(N)C3)c12 (centres unmarked) [Example 1.20]	124 µg/mL

query: Look up solubility thermodynamic for this compound: CNc1cc(F)cc2c1[nH]c1ncc(-c3cncc(C#N)c3)c(N3CCC(F)(CN)C3)c12 (centres unmarked) [Example 1.23]
result: 30 µg/mL

query: Look up solubility thermodynamic for this compound: CNc1cc(F)c(F)c2c1[nH]c1ncc(-c3cnc(OC)nc3)c(N3CC(CN)C(F)(F)C3)c12 (centres unmarked) [Example 3.03]
result: 125 µg/mL

query: Look up solubility thermodynamic for this compound: CNc1cc(F)c(F)c2c1[nH]c1ncc(-c3cnc(OC)nc3)c(N3CCC4(C[C@@H]4N)C3)c12 (stereo in doubt) [Example 1.35]
result: 90 µg/mL
